Collected TGI values appear next to each entry.
- Test system: HL-60(TB) leukemia
- Assay Summary: NCI tumour cell line growth inhibition, 48 h
# value in µM; strip the unit string

>>> reported_measurement("CCN(CC)CCNc1ccc2nc(C)n3c4ccc(OC)cc4c(=O)c1c23")
2.96

Tested on HL-60(TB) leukemia, the item `O=C(Cn1c(C(=O)/C=C/c2ccc(Cl)c(Cl)c2)nc2ccccc21)c1ccccc1` showed TGI equal to 36.7

# `Nc1ncnc2occ(-c3ccc(NC(=O)Nc4cccc(C(F)(F)F)c4)cc3)c12` with HL-60(TB) leukemia: TGI is 14.2

----------
The following molecules are shown together with reported TGI values.
- Tested on: MCF7 breast
- Assay Summary: NCI tumour cell line growth inhibition, 48 h

Worked cases, TGI given:
>>> reported_measurement("COc1cccc(-c2nc(N)c(C#N)c3c2CCS(=O)(=O)c2ccc(C)cc2-3)c1")
"> 100 µM"
>>> reported_measurement("COc1cc2c(/C=C3/C(=O)Nc4cc(C)c(O)cc43)c(Cl)[nH]c2cc1C")
"13.4 µM"
>>> reported_measurement("COC(=O)c1cc2c3cc(Cl)ccc3[nH]c2c2ncccc12")
"> 100 µM"
>>> reported_measurement("CC1CCC2C(C(=O)O[C@H]3C4C=CO[C@@H](OC5OC(CO)C(O)C(O)C5O)C4[C@@]4(CO)O[C@@H]34)=CO[C@@H](OC3OC(CO)C(O)C(O)C3O)C12 (stereo not given in full)")
"> 10 µM"

Here is another molecule to look at.
// sample `CS(C)(=O)=Nn1c(=O)n2n(c1=O)[C@H]1CC[C@@H]2C1` , its TGI was > 100 µM

----------
- Test system: COLO 205 colon
- Assay Summary: NCI tumour cell line growth inhibition, 48 h
Measured TGI by item

>>> reported_measurement("CCOC(=O)CCC(NC(=O)c1ccc(Oc2nc3cc(N)cc(N)c3nc2-c2ccccc2)cc1)C(=O)OCC (centres undefined)")
"> 100 µM"
>>> reported_measurement("O=c1c2cc([N+](=O)[O-])ccc2[nH]n1Cc1ccccc1Cl")
"> 100 µM"
>>> reported_measurement("CCc1n(Cc2ccc3ccccc3c2)cc[n+]1Cc1ccc2ccccc2c1")
"1.73 µM"
>>> reported_measurement("c1ccc2c(c1)n1c(N3CCCC3)[n+]3ccccc3c1c1c3cccc[n+]3c(N3CCCC3)n21")
"74.9 µM"
>>> reported_measurement("CC1(c2cccc(C(F)(F)F)c2)CC(c2cccc(C(F)(F)F)c2)=C(C#N)C(=C(C#N)C#N)N1 (centres undefined)")
"30.8 µM"

Record C#CCNC(CCCN=C(N)N)C(=O)O (centres undefined) , field TGI: > 100 µM

TGI recorded for this compound, `Clc1nc(NC23CC4CC(CC(C4)C2)C3)nc(NC23CC4CC(CC(C4)C2)C3)n1` , is > 100 µM

Notebook: `O=C(O)CNc1ncc2c(n1)-c1ccccc1OC2` , TGI read as > 100 µM

response.value for Cc1ncc2c(n1)CCC1=C2OS(=O)(=O)CC1N(C)C (centres undefined) (field: TGI) = > 100 µM

----------
GI50 values for the molecules below.
- Tested on: NCI/ADR-RES ovarian
- Assay Summary: NCI tumour cell line growth inhibition, 48 h

Example molecules with recorded GI50:
>>> reported_measurement("O=C1/C(=C/c2ccc([N+](=O)[O-])s2)Oc2ccc(Br)cc21")
"0.497 µM"
>>> reported_measurement("CCc1n(Cc2ccc3ccccc3c2)cc[n+]1Cc1ccc2ccccc2c1")
"19.2 µM"
>>> reported_measurement("COc1cc2c(cc1OCCCN1CCN(CCCOc3cc4c(cc3OC)C(=O)N3C[C@H](F)C[C@H]3C=N4)CC1)N=C[C@@H]1C[C@@H](F)CN1C2=O")
"9.18 µM"
>>> reported_measurement("Cc1cc(N)c2cc(NC(=O)/C=C\\c3ccccc3Cl)ccc2n1")
"> 24.2 µM"
>>> reported_measurement("O=NN(CC(=O)NNc1ccccc1)CC(=O)NNc1ccccc1")
"14.2 µM"

// field: GI50; key: `Cc1ccc(-c2csc3ncnc(Nc4cccc(O)c4)c23)cc1` ; value = 24.7 µM

Measured GI50 of `Cc1nc2ccccc2c(/C=C/c2ccc(C(F)(F)F)cc2)c1C(=O)/C=C/c1ccccc1` : 1.97 µM

Query `O=C1CC[C@@H]2[C@H]3CCC(=O)c4c3c(c3cccc(O)c3c4O)O[C@@]23C(=O)c2cccc(O)c2C(O)=C13` yields GI50 of > 100 µM

Entry under test: `CCOC(=O)c1c(C)n(Cc2ccc(Cl)cc2Cl)c2c1cc(O)c1[nH]c(Cc3ccccc3)nc12` . Its GI50 was 4.79 µM

----------
- Test system: TK-10 renal
- Assay Summary: NCI tumour cell line growth inhibition, 48 h
Attribute Measured: TGI

>>> reported_measurement("COC(=O)C1=CCC[C@H]2[C@@]1(COC(C)=O)CC[C@@H](C)[C@]2(C)CC(=O)c1ccoc1")
"> 50 µM"

For this molecule ( CC(=O)OC1CCC2(C)C(=CCC3C2CCC2(C)C3CC3OC4(CCC(C)CN4)C(C)C32)C1 (stereo unspecified) ), measured TGI is > 100 µM

molecule `CC1=C(C(=O)Nc2cc(F)c(F)cc2F)C(c2ccc(N(C)C)cc2)C(C(=O)Nc2cc(F)c(F)cc2F)=C(C)N1` , TGI observed: > 96 µM

Measured TGI, `Cc1ccccc1-c1cc(=O)c2cc(C)c(C)c(C(=O)O)c2o1` : > 100 µM

TGI recorded for this molecule, `CC(C)OC(=O)NNc1c(Cl)cc(Cl)cc1Cl` , is > 100 µM

response.value for `COc1ccccc1NC(=S)Nc1ccccn1` (field: TGI) = > 100 µM

For record `CN1CC[C@@]2(c3cccc(O)c3)CC(=O)/C(=C/c3ccc(Cl)c(Cl)c3)[C@H]1C2` the listed TGI is 27 µM

What the record says about `O=C1c2c[n+](Cc3ccccc3)ccc2-c2nc3ccccc3c3ccnc1c23` : TGI is 2.8 µM

Query `COc1cccc(/C=C2\COc3ccc(O)c(O)c3C2=O)c1OC` yields TGI of 8.19 µM

// `Cc1cc(N)c2cc(NC(=O)/C=C\c3ccccc3Cl)ccc2n1` : TGI value = 3.69 µM

The measured TGI associated with `O=C(Cn1c(C(=O)/C=C/c2ccc(Cl)c(Cl)c2)nc2ccccc21)c1ccccc1` reads 76.6 µM

----------
Listed below: TGI values for each entry.
- System: NCI-H226 lung
- Assay Summary: NCI tumour cell line growth inhibition, 48 h

TGI in this record for `COc1cccc(/C=N/[N+](C)(C)C)c1O` : > 10 µM

// field: TGI; key: COc1cc(C2c3cc4c(cc3[C@@H](Nc3cnc5ccccc5c3)C3COC(=O)[C@H]23)OCO4)cc(OC)c1O (stereo partly specified) ; value = 1.23 µM

The value of TGI measured for the compound `CC[n+]1c(/C=C/c2cc(C(=O)OC)n3c2sc2ccccc23)sc2ccccc21` turned out to be 45.1 µM

TGI measured on `Oc1ccc(Br)cc1C=Nc1ccc(Oc2ccc(N=Cc3cc(Br)ccc3O)cc2)cc1` = > 19.6 µM

Item: `COc1ccc(C)cc1NC(=S)N/N=C/c1ccco1` | TGI: > 100 µM

----------
# TGI annotations
- System: MDA-MB-435
- Assay Summary: NCI tumour cell line growth inhibition, 48 h
Where a SMILES comes first, the peptide text is derived from it. [ ]: non-standard residue; d: D form. The star is where a group is joined. Phe(4-NO2) = N[CH](Cc1ccc([N+](=O)[O-])cc1)C(=O)O; Cbz = O=C(OCc1ccccc1)*

Observe how each entry below is paired with its result.
>>> reported_measurement("COc1cccc2c1C(=O)c1c(O)c3c(c(O)c1C2=O)C[C@@](O)(C(=O)CO)C[C@@H]3OC1CC2C(OCN2CN2COC3C(C)OC(O[C@H]4C[C@](O)(C(=O)CO)Cc5c(O)c6c(c(O)c54)C(=O)c4c(OC)cccc4C6=O)CC32)C(C)O1 (stereo not given in full)")
"0.0391 µM"
>>> reported_measurement("O=C1OC(=O)c2c1cc1cc3c(cc1c2-c1ccc2c(c1)OCO2)OCO3")
"> 100 µM"
>>> reported_measurement("NC(N)=N/N=C/c1c(Cl)nc2n1CCS2")
"> 100 µM"
>>> reported_measurement("O=C(O)C(C1NCCS1)N1C(=O)c2ccccc2C1=O (stereo not given)")
"> 100 µM"

Please fill in: TGI reported for Cc1nc2sc(C(=O)Nc3cccc4c3OCCO4)c(N)c2cc1C(C)O (stereo not given) = 3.54 µM

TGI for CCOC(=O)C1Cc2ccc(C)cc2C1=O (stereo not given) is > 100 µM

TGI for `O=C(O)c1cc(-c2ccc3cc(O)c(O)cc3c2)ccc1O` is > 12.5 µM

compound CCCCCCCCC#CCCCCCCC(F)C(=O)O (stereo not given) , TGI observed: > 100 µM

Measured TGI, `Cc1cc(N)c2cc(NC(=O)/C=C\c3ccccc3Cl)ccc2n1` : 2.52 µM

CCOC(=O)CCC(NC(=O)OCc1ccccc1)C(=O)NC(CCC(=O)OCC)C(=O)NC(CCC(=O)OCC)C(=O)NC(CCC(=O)OCC)C(=O)NC(CCC(=O)OCC)C(=O)NC(Cc1ccc([N+](=O)[O-])cc1)C(=O)NC(CCC(=O)OCC)C(=O)NC(CCC(=O)OCC)C(=O)NC(CCC(=O)OCC)C(=O)NC(CCC(=O)OCC)C(=O)NC(CCC(=O)OCC)C(=O)OCC (stereo not given) (Cbz-E(OEt)E(OEt)E(OEt)E(OEt)E(OEt)[Phe(4-NO2)]E(OEt)E(OEt)E(OEt)E(OEt)E(OEt)-OEt; configuration not given here) has a reported TGI of > 50 µM
